Molecular target: T1, LAG3 Protein, Human, Recombinant (His Tag) (Sino Biological Catalog No. 16498-H08H) (human, UniProt P18627 23-450)
T1 construct: Bought protein; also called hLAG3-His; LAG3-His; not shown: His tag
T1 sequence (looked up): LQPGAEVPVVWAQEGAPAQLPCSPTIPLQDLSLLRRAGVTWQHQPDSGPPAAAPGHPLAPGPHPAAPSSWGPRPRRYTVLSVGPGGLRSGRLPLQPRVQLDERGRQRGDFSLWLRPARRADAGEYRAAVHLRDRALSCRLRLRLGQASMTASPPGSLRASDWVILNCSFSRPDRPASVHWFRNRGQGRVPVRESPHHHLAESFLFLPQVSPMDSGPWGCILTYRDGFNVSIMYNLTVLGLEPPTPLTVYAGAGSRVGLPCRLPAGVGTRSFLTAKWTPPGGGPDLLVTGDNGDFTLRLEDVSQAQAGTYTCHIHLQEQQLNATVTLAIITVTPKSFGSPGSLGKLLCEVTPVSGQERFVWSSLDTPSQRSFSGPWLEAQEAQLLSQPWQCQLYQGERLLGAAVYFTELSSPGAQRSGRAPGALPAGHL
Test: SPR binning on LAG3-His; competitor 73
Readout label: RU
Form field: result (number plus unit)

Solved cases below.
Query string: Using the record for sdAb No. 25 (VHH, Fc of the tested form not described; also called sdAb 25; sdAb #25; not shown: Fc part implied by anti-human Fc capture and anti-human IgG Fc detection) VHH: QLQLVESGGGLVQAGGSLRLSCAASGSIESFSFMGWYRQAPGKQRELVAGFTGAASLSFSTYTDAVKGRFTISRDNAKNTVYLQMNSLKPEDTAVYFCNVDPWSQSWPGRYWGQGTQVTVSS , state its measured RU.
Result string: 47.6 RU

Query string: Using the record for sdAb No. 17 (VHH, Fc of the tested form not described; also called sdAb 17; not shown: Fc part implied by anti-human Fc capture and anti-human IgG1 Fc detection) VHH: QLQLVESGGGLVQPGGSLRLSCAASGLTLDGYAIGWFRQAPGKEREGLACISGSDGSTHYLDSVKGRFTISRDNGKNTMALQMNSLQFGDTAIYYCAARRGSCSGSWTYWGQGTQVTVSS , state its measured RU.
Result string: -17 RU

Query string: Using the record for sdAb No. 21 (VHH, Fc of the tested form not described; also called sdAb 21; not shown: Fc part implied by anti-human Fc capture) VHH: QLQLVESGGGLVQPGGSLRLSCAASGLTLDGYAIAWFRQAPGKEREGLSCISGTDGSTHYLDSVKGRFTISRDNGKNTMALQMNSLQFGDTAIYYCAARRGSCSGSWTYWGQGTQITVSS , state its measured RU.
Result string: -19.5 RU

Further cases:
Query string: Using the record for sdAb No. 27 (VHH, Fc of the tested form not described; also called sdAb 27; not shown: Fc part implied by anti-human Fc capture and anti-human IgG Fc detection) VHH: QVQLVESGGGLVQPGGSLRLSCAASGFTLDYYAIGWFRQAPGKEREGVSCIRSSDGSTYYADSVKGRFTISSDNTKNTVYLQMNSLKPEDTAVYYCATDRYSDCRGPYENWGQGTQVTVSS , state its measured RU.
Result string: -15.1 RU
